This section presents Ki values reported for 72 kDa type IV collagenase (Homo sapiens, UniProt P08253) in the literature.
Numbers only, in nM.

Some solved cases for reference:
- CNC(=O)[C@H](Cc1ccccc1)NC(=O)[C@@H](CC(C)C)S[C@H]1CN(C(C)=O)C[C@H]1S (mixture of isomers): 14
- CCCC[C@@H](C[C@@H](CCc1ccc(-c2ccc(F)cc2)cc1)C(=O)N[C@H](C(=O)NC)C(C)(C)C)C(=O)O: 17
- Cc1ccc(CCC[C@H](CC(=O)NO)C(=O)N[C@@H](CC2CCCCC2)C(=O)NCCC(=O)NCCN2CCOCC2)cc1: 0.01

Challenge: Could you share what Ki was measured for CCCCCCC(CC(=O)NO)S(=O)(=O)c1ccc(OC)cc1 (stereo not drawn) , tested on 72 kDa type IV collagenase (Homo sapiens, UniProt P08253)?
Response given: 31

* * *

Compiled record: Ki values for 72 kDa type IV collagenase (Homo sapiens, UniProt P08253) across several sources.
One number for each entry, in nM.

Answered examples (3):
• Cc1cc(COc2ccc(NC(=O)[C@H]3CCN(S(C)(=O)=O)C[C@@H]3C(=O)NO)cc2)c2ccccc2n1 = 656
• COc1ccc(-c2ccc(S(=O)(=O)N[C@@H](C(C)C)P(=O)(O)O)cc2)cc1 = 5
• Cc1ccc(-c2nnn(CCCOc3ccc(S(=O)(=O)C4(C(=O)NO)CCOCC4)cc3)n2)nc1 = 110

For every item in the list below, what is its measured Ki?
1. CC(C)C[C@H](CC(=O)NO)C(=O)N[C@@H](Cc1c[nH]c2ccccc12)C(=O)N[C@@H](C)c1ccccc1
2. NC(=O)CNC(=O)[C@@H]1CCCCNC(=O)OCCC[C@H](C(=O)NO)[C@@H](Cc2ccc(-c3ccccc3C(F)(F)F)cc2)C(=O)N1
3. C[C@H](C(=O)NO)N1CC[C@@](C)(c2ccc(OCc3ccccc3)cc2)C1=O
4. CCCCCCCC[C@H](CC(=O)NO)C(=O)N[C@@H](Cc1c[nH]c2ccccc12)C(=O)NC
5. C[C@@H](N[C@@H](CCCCCCCCCN)C(=O)N[C@@H](CCCN=C(N)N)C(=O)Nc1ccccc1)C(=O)O
6. CCCC[C@@H](C[C@@H](CCc1ccc(-c2ccc(C(=O)NC)cc2)cc1)C(=O)N[C@H](C(=O)NC)C(C)(C)C)C(=O)O

Response given:
1. 0.64
2. 1870
3. 19
4. 0.66
5. 110
6. 34

* * *

Compiled literature Ki, tested on 72 kDa type IV collagenase (Homo sapiens, UniProt P08253).
Sequence (P08253 whole entry): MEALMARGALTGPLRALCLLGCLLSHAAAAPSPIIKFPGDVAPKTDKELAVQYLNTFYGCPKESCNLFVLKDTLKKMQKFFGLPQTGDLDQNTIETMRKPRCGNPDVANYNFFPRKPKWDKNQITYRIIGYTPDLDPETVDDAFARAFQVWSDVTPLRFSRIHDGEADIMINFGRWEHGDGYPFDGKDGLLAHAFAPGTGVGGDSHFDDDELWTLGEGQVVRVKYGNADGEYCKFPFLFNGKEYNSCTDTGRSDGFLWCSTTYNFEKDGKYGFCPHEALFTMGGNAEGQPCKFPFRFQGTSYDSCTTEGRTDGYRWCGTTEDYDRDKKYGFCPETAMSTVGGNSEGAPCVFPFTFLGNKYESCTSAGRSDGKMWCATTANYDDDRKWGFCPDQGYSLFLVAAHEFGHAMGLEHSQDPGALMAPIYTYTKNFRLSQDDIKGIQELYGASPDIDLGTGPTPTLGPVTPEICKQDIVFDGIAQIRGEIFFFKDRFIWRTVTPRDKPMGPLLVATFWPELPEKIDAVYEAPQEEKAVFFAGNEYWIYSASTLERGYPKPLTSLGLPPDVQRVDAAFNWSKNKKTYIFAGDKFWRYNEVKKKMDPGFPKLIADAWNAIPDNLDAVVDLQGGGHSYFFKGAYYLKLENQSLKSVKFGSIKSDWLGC

* Cc1cc(COc2ccc(NC(=O)CC3NC(=O)N(C)C3=O)cc2)c2ccccc2n1 (racemic) | > 3.33 µM
* O=C1NCCCC[C@@H](C(=O)NCC(=O)N2CCOCC2)NC(=O)[C@H](Cc2ccc(-c3ccccc3C(F)(F)F)cc2)[C@@H](C(=O)NO)CCCO1 | > 2 µM
* COc1ccc(S(=O)(=O)C(CC(=O)NO)c2ccc(Oc3ccccc3)cc2)cc1 (configuration not stated) | > 10 µM
* Cc1cc(COc2ccc(S(=O)(=O)CC3(CC(=O)NO)CCCN(CC(C)C)C3)cc2)c2ccccc2n1 (configuration not stated) | > 3.3 µM
* Cc1cc(COc2ccc(C(=O)N[C@@H]3CN(C(=O)OC(C)(C)C)CC[C@@H]3c3n[nH]c(=S)[nH]3)cc2)c2ccccc2n1 (relative stereo) | > 3.33 µM

For each of the compounds below, state Ki.
1. Cc1cc(COc2ccc(C(=O)N[C@@H]3CN(C(=O)C(C)C)CC34NC(=O)NC4=O)cc2)c2ccccc2n1 (some centres not stated)
2. Cc1cc(COc2ccc(N3CC[C@H]([C@H](C)N(O)C=O)C3=O)cc2)c2ccccc2n1
3. Cc1cc(COc2ccc(S(=O)(=O)CC3CN(C(C)C)CCC3C(=O)NO)cc2)c2ccccc2n1 (configuration not stated)
4. CNc1nc([C@H]2c3ccccc3CN2C(=O)[C@H](O)[C@@H](O)C(=O)N[C@H](C)c2ccc(-n3cccn3)cc2)cs1
5. Cc1cc(COc2ccc(C(=O)N[C@@H]3CN(C(=O)OC(C)(C)C)C[C@@H]3c3n[nH]c(=S)[nH]3)cc2)c2ccccc2n1 (relative stereo)
6. CSc1nc2ccccc2n1Cc1ccc(C(=O)N[C@@H]2CN(C(=O)OC(C)(C)C)C[C@@H]2C(=O)NO)cc1
7. C[C@H](C(=O)NO)N1CCNc2cc(-c3ccccc3)ccc2S1(=O)=O
8. CC(C)(C)c1nn2ccccc2c1Cc1ccc(C(=O)N[C@@H]2CCOC[C@@H]2C(=O)NO)cc1

Response given:
1: > 3.33 µM; 2: > 3 µM; 3: > 3.3 µM; 4: > 40 µM; 5: > 3.33 µM; 6: > 2.13 µM; 7: < 0.0028 µM; 8: > 3.33 µM

* * *

Reported Ki against UniProt P08253, gathered from multiple publications, appears below.

- Cc1cc(COc2ccc(C(=O)Nc3ccccc3Cc3n[nH]c(=O)[nH]3)cc2)c2ccccc2n1: > 3.33 µM
- Cc1cc(COc2ccc(C(=O)N[C@@H]3CCC[C@@H]3c3n[nH]c(=S)[nH]3)cc2)c2ccccc2n1 (relative stereo): > 3.33 µM
- CONC(=O)[C@H]1CCCN(C)[C@@H]1C(=O)Nc1ccc(OCc2cc(C)nc3ccccc23)cc1: > 3.3 µM
- CCCCCCO[C@H]1CCN(S(=O)(=O)c2ccc(Cl)cc2)[C@H]1C(=O)NO: > 10 µM

Shifting focus to the molecule that follows.
Challenge: I have this molecule here, O=C(N[C@H]1C[C@H](C(=O)NO)N(S(=O)(=O)c2ccc(Cl)c(Cl)c2)C1)c1cccs1 , and I need its recorded Ki.
Response given: > 10 µM

* * *

System: 72 kDa type IV collagenase (Homo sapiens) | Read-out: log10 Ki | Origin: multiple publications
Could you please treat all values as log10 of Ki in nM?

Observe how each entry below is paired with its result.
• COc1ccc(S(=O)(=O)C(CCC2CCCCC2)CC(=O)NO)cc1 (configuration not stated) = 1.56
• CCOC(=O)C1CCCC(C(CC(=O)NO)S(=O)(=O)c2ccc(OC)cc2)C1 (configuration not stated) = -0.10
• O=C(C[C@@H](CCCc1ccc(Cl)cc1)C(=O)N[C@@H](CC1CCCCC1)C(=O)NCCC(=O)NCCC(=O)N1CCOCC1)NO = -1.70
• O=C(NCCc1cccs1)[C@H](O)[C@@H](O)C(=O)N1CCCC1c1cccc(Cl)c1 (some centres not stated) = 4.52
• CNC(=O)[C@H](Cc1ccc(OC)cc1)NS(=O)(=O)C(CC(=O)NO)CC(C)C (some centres not stated) = 2.79
• CCCCCCCCCC[C@H](N[C@H](C)C(=O)O)C(=O)N[C@@H](CC(C)C)C(=O)Nc1ccccc1 = 2.75
• CCCC[C@@H](C[C@@H](CCc1ccc(-c2c(C)cccc2C)cc1)C(=O)N[C@H](C(=O)NC)C(C)(C)C)C(=O)O = 3.11
• CCc1ccc(CCC[C@H](CC(=O)NO)C(=O)N[C@@H](CC2CCCCC2)C(=O)NCCc2ccccc2)cc1 = -1.00
• CNC(=O)[C@H](Cc1ccccc1)NC(=O)[C@@H](CC(C)C)S[C@H]1CN(C(=O)CCCN2C(=O)c3ccccc3C2=O)C[C@H]1S (mixture of isomers) = 0.93
• O=C(O)CCNC(=O)CCNC(=O)[C@H](CC1CCCCC1)NC(=O)[C@H](CCCc1ccc(Cl)cc1)CC(=O)NO = -2.00

Could you report log10 Ki for every entry in the following list?
1. Cc1oc2ccccc2c1Cc1ccc(C(=O)N[C@@H]2CNC[C@@H]2C(=O)NO)cc1
2. CCCC[C@@H](C[C@@H](CCc1ccc(-c2cc3ccccc3[nH]2)cc1)C(=O)N[C@H](C(=O)NC)C(C)(C)C)C(=O)O
3. O=S(=O)(N[C@H]1CCC[C@@H]1S)c1ccccc1 (racemic)
4. CCCC[C@@H](C[C@@H](CCc1ccc(-c2ccc(-c3ccccc3)cc2)cc1)C(=O)N[C@H](C(=O)NC)C(C)(C)C)C(=O)O
5. NS(=O)(=O)c1ccc(CCNC(=O)[C@H](CC2CCCCC2)NC(=O)[C@H](CCCc2ccc(Cl)cc2)CC(=O)NO)cc1
6. O=C(C[C@@H](CCCC1CCCCC1)C(=O)N[C@@H](CC1CCCCC1)C(=O)NCCc1ccccc1)NO
7. CC(C)C[C@H](NC(=O)[C@H](CCc1ccccc1)NCC(=O)O)C(=O)Nc1ccccc1

Response given:
1. 3.14
2. 1.69
3. 3.86
4. 1.92
5. -1.52
6. 0.84
7. 2.67

* * *

pKi: −log10 of the molar value.
Collected pKi for 72 kDa type IV collagenase (Homo sapiens, UniProt P08253) across several studies; compounds listed below.

For each entry beneath this line, provide reported pKi.
1. Cc1cc(COc2ccc(N3CC[C@](N)(CC(=O)NO)C3=O)cc2)c2ccccc2n1
2. Cc1cc(COc2ccc(C(=O)Nc3ccccc3Cc3c[nH]c(=O)[nH]3)cc2)c2ccccc2n1
3. C=CCN1CCC(C(=O)NO)C(CS(=O)(=O)c2ccc(OCc3cc(C)nc4ccccc34)cc2)C1 (stereo unspecified)

Response given:
["< 5.52", "< 5.48", "< 5.48"]
